# credit: ChEMBL document CHEMBL1148425

protocol summary: Time to reach maximum concentration in rat after 2 mg/kg peroral administration
Assay type: ADME, organism-based
Set-up: dose 2 mg/kg, route oral
stated conditions: in vivo, po
property label: Tmax (min)
Answer format: numeric, min implied, no suffix.

QUERY: Please indicate Tmax recorded for "Cc1nc2cc(OC[C@H](O)CN3CCN(CC(=O)Nc4c(C)cccc4C)CC3)ccc2s1"
RESULT: 49.8

* * *

protocol summary: Maximum concentration in rat after 2 mg/kg peroral administration
Type: ADME, organism-based
Design: dose 2 mg/kg, route oral
stated conditions: in vivo, po
property label: Cmax (ng/mL)
// units = ng/mL; emit number, no label

| smiles data | reported result |
| --- | --- |
| CCn1c2ccccc2c2cc(NC(=O)CN3CCN(C[C@@H](O)COc4ccc5sc(C)nc5c4)CC3)ccc21 | 26.3 |

Would you kindly look at the next entry?
QUERY: Quick one: give measured Cmax for "Cc1nc2cc(OC[C@H](O)CN3CCN(CC(=O)Nc4c(C)cccc4C)CC3)ccc2s1"
RESULT: 26.1
